target_or_system: UniProtKB Q9H244
Sequence (Q9H244 whole entry): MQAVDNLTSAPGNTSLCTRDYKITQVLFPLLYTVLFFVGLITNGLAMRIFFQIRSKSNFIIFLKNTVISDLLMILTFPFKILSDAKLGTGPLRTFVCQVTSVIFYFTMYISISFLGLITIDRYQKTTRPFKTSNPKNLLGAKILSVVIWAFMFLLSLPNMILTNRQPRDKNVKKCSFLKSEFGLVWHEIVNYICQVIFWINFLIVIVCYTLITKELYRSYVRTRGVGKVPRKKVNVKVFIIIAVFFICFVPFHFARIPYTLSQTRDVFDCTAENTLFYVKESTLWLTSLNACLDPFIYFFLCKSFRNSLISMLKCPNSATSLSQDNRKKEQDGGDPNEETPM
assay_remarks: Agonist activity at human platelet P2Y12 receptor assessed as decrease in intra-platelet phosphorylated VASP by flow cytometric analysis
The source made the active and inactive calls. No cut-off for these calls is given here.

- compound: "Nc1nc(SCCC(F)(F)F)nc2c1ncn2[C@@H]1O[C@H](COP(=O)(S)OP(=O)(O)C(Cl)P(=O)(O)OP(=O)(S)OC[C@H]2O[C@@H](n3cnc4c(N)nc(SCCC(F)(F)F)nc43)[C@H](O)[C@@H]2O)[C@@H](O)[C@H]1O (mixture of isomers)"
  target_or_system: "UniProtKB Q9H244"
  Activity: "inactive"
- compound: "CSc1nc(N)c2ncn([C@@H]3O[C@H](COP(=O)(S)OP(=O)(O)C(Cl)(Cl)P(=O)(O)OP(=O)(S)OC[C@H]4O[C@@H](n5cnc6c(N)nc(SC)nc65)[C@H](O)[C@@H]4O)[C@@H](O)[C@H]3O)c2n1 (mixture of isomers)"
  target_or_system: "UniProtKB Q9H244"
  Activity: "inactive"

====

Tested on: Plasma
assay_remarks: Metabolic stability in human plasma assessed as first order elimination rate constant at 50 uM measured at 1 to 4 hrs
Assay type: ADME, cell-free
Reported Kel by item:

- compound: "CSc1nc(N)c2ncn([C@@H]3O[C@H](COP(=O)([S-])OP(=O)([O-])C(Cl)P(=O)([O-])OP(=O)([S-])OC[C@H]4O[C@@H](n5cnc6c(N)nc(SC)nc65)[C@H](O)[C@@H]4O)[C@@H](O)[C@H]3O)c2n1.[Na+].[Na+].[Na+].[Na+] (single isomer, unassigned; diastereomer 1)"
  target_or_system: "Plasma"
  Kel [h⁻¹]: 0.00976
- compound: "CSc1nc(N)c2ncn([C@@H]3O[C@H](COP(=O)([S-])OP(=O)([O-])C(Cl)P(=O)([O-])OP(=O)([S-])OC[C@H]4O[C@@H](n5cnc6c(N)nc(SC)nc65)[C@H](O)[C@@H]4O)[C@@H](O)[C@H]3O)c2n1.[Na+].[Na+].[Na+].[Na+] (single isomer, unassigned; diastereomer 2)"
  target_or_system: "Plasma"
  Kel [h⁻¹]: 0.0171
- compound: "CSc1nc(N)c2ncn([C@@H]3O[C@H](COP(=O)([S-])OP(=O)([O-])C(Cl)P(=O)([O-])OP(=O)([S-])OC[C@H]4O[C@@H](n5cnc6c(N)nc(SC)nc65)[C@H](O)[C@@H]4O)[C@@H](O)[C@H]3O)c2n1.[Na+].[Na+].[Na+].[Na+] (single isomer, unassigned; diastereomer 4)"
  target_or_system: "Plasma"
  Kel [h⁻¹]: 0.0424
- compound: "CSc1nc(N)c2ncn([C@@H]3O[C@H](COP(=O)([S-])OP(=O)([O-])C(Cl)P(=O)([O-])OP(=O)([S-])OC[C@H]4O[C@@H](n5cnc6c(N)nc(SC)nc65)[C@H](O)[C@@H]4O)[C@@H](O)[C@H]3O)c2n1.[Na+].[Na+].[Na+].[Na+] (mixture of isomers)"
  target_or_system: "Plasma"
  Kel [h⁻¹]: 0.0221
- compound: "CSc1nc(N)c2ncn([C@@H]3O[C@H](COP(=O)([S-])OP(=O)([O-])C(Cl)P(=O)([O-])OP(=O)([S-])OC[C@H]4O[C@@H](n5cnc6c(N)nc(SC)nc65)[C@H](O)[C@@H]4O)[C@@H](O)[C@H]3O)c2n1.[Na+].[Na+].[Na+].[Na+] (single isomer, unassigned; diastereomer 3)"
  target_or_system: "Plasma"
  Kel [h⁻¹]: 0.0217

====

target_or_system: P2Y purinoceptor 1 (Homo sapiens, UniProt P47900)
Sequence (P47900 whole entry): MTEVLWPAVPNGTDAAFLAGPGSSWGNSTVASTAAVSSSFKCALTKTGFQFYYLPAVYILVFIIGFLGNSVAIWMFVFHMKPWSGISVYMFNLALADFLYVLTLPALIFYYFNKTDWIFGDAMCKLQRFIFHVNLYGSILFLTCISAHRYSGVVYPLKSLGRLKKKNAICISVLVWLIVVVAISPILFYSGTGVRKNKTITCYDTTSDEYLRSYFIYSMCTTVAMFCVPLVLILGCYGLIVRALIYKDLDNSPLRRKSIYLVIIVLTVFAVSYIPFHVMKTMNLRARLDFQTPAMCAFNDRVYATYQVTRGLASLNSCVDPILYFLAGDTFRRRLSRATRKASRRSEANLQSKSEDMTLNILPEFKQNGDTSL
assay_remarks: Antagonist activity at human platelet P2Y1 receptor assessed as inhibition of ADP-induced increase in cytosolic calcium level by FLUO-4 staining based flow cytometric analysis
pIC50: −log10 of the molar value.
quantity: pIC50

- compound: "CNc1ncnc2c1ncn2[C@@H]1O[C@H](COP(=O)(S)OP(=O)(O)C(Cl)P(=O)(O)OP(=O)(S)OC[C@H]2O[C@@H](n3cnc4c(NC)ncnc43)[C@H](O)[C@@H]2O)[C@@H](O)[C@H]1O (mixture of isomers)"
  experimental_value: 5.71
- compound: "CSc1nc(N)c2ncn([C@@H]3O[C@H](COP(=O)(S)OP(=O)(O)OP(=O)(O)OP(=O)(S)OC[C@H]4O[C@@H](n5cnc6c(N)nc(SC)nc65)[C@H](O)[C@@H]4O)[C@@H](O)[C@H]3O)c2n1 (mixture of isomers)"
  experimental_value: 6.80
- compound: "Nc1nc(SCCC(F)(F)F)nc2c1ncn2[C@@H]1O[C@H](COP(=O)(S)OP(=O)(O)C(Cl)P(=O)(O)OP(=O)(S)OC[C@H]2O[C@@H](n3cnc4c(N)nc(SCCC(F)(F)F)nc43)[C@H](O)[C@@H]2O)[C@@H](O)[C@H]1O (mixture of isomers)"
  experimental_value: 5.28
- compound: "CSc1nc(N)c2ncn([C@@H]3O[C@H](COP(=O)([S-])OP(=O)([O-])C(Cl)P(=O)([O-])OP(=O)([S-])OC[C@H]4O[C@@H](n5cnc6c(N)nc(SC)nc65)[C@H](O)[C@@H]4O)[C@@H](O)[C@H]3O)c2n1.[Na+].[Na+].[Na+].[Na+] (mixture of isomers)"
  experimental_value: 5.67
- compound: "CCCSc1nc(N)c2ncn([C@@H]3O[C@H](COP(=O)(S)OP(=O)(O)C(Cl)P(=O)(O)OP(=O)(S)OC[C@H]4O[C@@H](n5cnc6c(N)nc(SCCC)nc65)[C@H](O)[C@@H]4O)[C@@H](O)[C@H]3O)c2n1 (mixture of isomers)"
  experimental_value: 5.20
- compound: "Nc1nc(Br)nc2c1ncn2[C@@H]1O[C@H](COP(=O)(S)OP(=O)(O)C(Cl)P(=O)(O)OP(=O)(S)OC[C@H]2O[C@@H](n3cnc4c(N)nc(Br)nc43)[C@H](O)[C@@H]2O)[C@@H](O)[C@H]1O (mixture of isomers)"
  experimental_value: 5.65

====

Tested on: Plasma
assay_remarks: Half life in human plasma at 50 uM measured at 1 to 4 hrs
Format: ADME, cell-free
Friendly reminder: t1/2 below 30 h is Criterion met, at or above is Criterion not met.

- compound: "CSc1nc(N)c2ncn([C@@H]3O[C@H](COP(=O)([S-])OP(=O)([O-])C(Cl)P(=O)([O-])OP(=O)([S-])OC[C@H]4O[C@@H](n5cnc6c(N)nc(SC)nc65)[C@H](O)[C@@H]4O)[C@@H](O)[C@H]3O)c2n1.[Na+].[Na+].[Na+].[Na+] (single isomer, unassigned; diastereomer 4)"
  category: "Criterion met"
- compound: "CSc1nc(N)c2ncn([C@@H]3O[C@H](COP(=O)([S-])OP(=O)([O-])C(Cl)P(=O)([O-])OP(=O)([S-])OC[C@H]4O[C@@H](n5cnc6c(N)nc(SC)nc65)[C@H](O)[C@@H]4O)[C@@H](O)[C@H]3O)c2n1.[Na+].[Na+].[Na+].[Na+] (mixture of isomers)"
  category: "Criterion not met"
- compound: "CSc1nc(N)c2ncn([C@@H]3O[C@H](COP(=O)([S-])OP(=O)([O-])C(Cl)P(=O)([O-])OP(=O)([S-])OC[C@H]4O[C@@H](n5cnc6c(N)nc(SC)nc65)[C@H](O)[C@@H]4O)[C@@H](O)[C@H]3O)c2n1.[Na+].[Na+].[Na+].[Na+] (single isomer, unassigned; diastereomer 1)"
  category: "Criterion not met"
- compound: "CSc1nc(N)c2ncn([C@@H]3O[C@H](COP(=O)([S-])OP(=O)([O-])C(Cl)P(=O)([O-])OP(=O)([S-])OC[C@H]4O[C@@H](n5cnc6c(N)nc(SC)nc65)[C@H](O)[C@@H]4O)[C@@H](O)[C@H]3O)c2n1.[Na+].[Na+].[Na+].[Na+] (single isomer, unassigned; diastereomer 3)"
  category: "Criterion not met"
- compound: "CSc1nc(N)c2ncn([C@@H]3O[C@H](COP(=O)([S-])OP(=O)([O-])C(Cl)P(=O)([O-])OP(=O)([S-])OC[C@H]4O[C@@H](n5cnc6c(N)nc(SC)nc65)[C@H](O)[C@@H]4O)[C@@H](O)[C@H]3O)c2n1.[Na+].[Na+].[Na+].[Na+] (single isomer, unassigned; diastereomer 2)"
  category: "Criterion not met"

====

Parameter Activity: see the listing below.
target_or_system: P2X purinoceptor 1 (Homo sapiens) (UniProt P51575)
Sequence (P51575 whole entry): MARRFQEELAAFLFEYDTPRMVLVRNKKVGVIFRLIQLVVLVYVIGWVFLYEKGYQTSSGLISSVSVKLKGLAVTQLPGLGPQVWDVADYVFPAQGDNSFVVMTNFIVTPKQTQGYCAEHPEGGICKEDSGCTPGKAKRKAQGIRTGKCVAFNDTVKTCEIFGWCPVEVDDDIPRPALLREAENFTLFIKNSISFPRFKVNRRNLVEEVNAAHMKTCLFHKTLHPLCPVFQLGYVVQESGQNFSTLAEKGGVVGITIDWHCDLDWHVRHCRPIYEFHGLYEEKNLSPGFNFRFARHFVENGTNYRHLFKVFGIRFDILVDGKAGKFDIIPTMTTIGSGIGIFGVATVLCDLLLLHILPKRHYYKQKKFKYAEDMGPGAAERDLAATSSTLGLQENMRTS
assay_remarks: Agonist activity at human platelet P2X1 receptor assessed as increase in cytosolic calcium level at 1 uM by […] staining based flow cytometric analysis relative to beta,gamma-CH2-ATP
quantity: Activity (%)

- compound: "Nc1nc(Br)nc2c1ncn2[C@@H]1O[C@H](COP(=O)(S)OP(=O)(O)C(Cl)P(=O)(O)OP(=O)(S)OC[C@H]2O[C@@H](n3cnc4c(N)nc(Br)nc43)[C@H](O)[C@@H]2O)[C@@H](O)[C@H]1O (mixture of isomers)"
  quantity: "Activity"
  experimental_value: 1.8
- compound: "CSc1nc(N)c2ncn([C@@H]3O[C@H](COP(=O)(O)OP(=O)(O)OP(=O)(O)OP(=O)(O)OC[C@H]4O[C@@H](n5cnc6c(N)nc(SC)nc65)[C@H](O)[C@@H]4O)[C@@H](O)[C@H]3O)c2n1"
  quantity: "Activity"
  experimental_value: 48
- compound: "CNc1nc(SC)nc2c1ncn2[C@@H]1O[C@H](COP(=O)(S)OP(=O)(O)C(Cl)P(=O)(O)OP(=O)(S)OC[C@H]2O[C@@H](n3cnc4c(NC)nc(SC)nc43)[C@H](O)[C@@H]2O)[C@@H](O)[C@H]1O (stereo not given in full)"
  quantity: "Activity"
  experimental_value: 92
- compound: "CCCCCSc1nc(N)c2ncn([C@@H]3O[C@H](COP(=O)(S)OP(=O)(O)C(Cl)P(=O)(O)OP(=O)(S)OC[C@H]4O[C@@H](n5cnc6c(N)nc(SCCCCC)nc65)[C@H](O)[C@@H]4O)[C@@H](O)[C@H]3O)c2n1 (mixture of isomers)"
  quantity: "Activity"
  experimental_value: 4.7
- compound: "Nc1nc(SCCC(F)(F)F)nc2c1ncn2[C@@H]1O[C@H](COP(=O)(S)OP(=O)(O)C(Cl)P(=O)(O)OP(=O)(S)OC[C@H]2O[C@@H](n3cnc4c(N)nc(SCCC(F)(F)F)nc43)[C@H](O)[C@@H]2O)[C@@H](O)[C@H]1O (mixture of isomers)"
  quantity: "Activity"
  experimental_value: 4.7

Data origin, for the record: ChEMBL document CHEMBL3745686
